Entry source: patent US20250352659A1

test-summary: Conjugator-antibody conjugate stability in formulation buffer (pH 5.5 20 mM histidine buffer)
Assay type: physicochemical
condition-description: incubation 168 h, pH 5.5, 22 °C
observed-property: MS DAR-T = 168 h
Enter a number only.

>>> result("NCC(COC(=O)NCCOCCOCCOCCOCCC(=O)O)N1C(=O)C=CC1=O (centres unmarked)")
8.00

Challenge: Request the reported MS DAR-T = 168 h associated with CN(C)C(=O)CN(C)C(=O)OCC(CN)N1C(=O)C=CC1=O (centres unmarked)
Response given: 7.80

Challenge: Can you share its MS DAR-T = 168 h? I mean this molecule: CN(C)C(=O)CCOCC(N)CN1C(=O)C=CC1=O (centres unmarked)
Response given: 8.00

Challenge: Which measured MS DAR-T = 168 h value corresponds to CN(C)C(=O)CCOCCC(CN)N1C(=O)C=CC1=O (centres unmarked) ?
Response given: 8.00

Challenge: GET /values?readout=MS DAR-T = 168 h&item= CN(C)C(=O)CCNC(=O)OCC(CCN)N1C(=O)C=CC1=O (centres unmarked)
Response given: 8.00

----------
test-summary: Conjugator-antibody conjugate maleimide hydrolysis (ring opening) kinetics by reduced LCMS
Format: physicochemical
condition-description: pH 7, time point 24 h
observed-property: RO (%) HC
All answers are understood in %, so give the number only.

>>> result("CN(C)C(=O)CCNC(=O)OCC(CCN)N1C(=O)C=CC1=O (stereo not drawn)")
84.46
>>> result("CN(C)C(=O)CCCCC(CN)N1C(=O)C=CC1=O (stereo not drawn)")
99.52

Consider the record given below.
Challenge: Reported RO (%) HC for CN(C)C(=O)CN(C)C(=O)OCC(CN)N1C(=O)C=CC1=O (stereo not drawn) : what is it?
Response given: 99.55
